MEASURED_ON: rat TRPV1 (Rattus norvegicus, UniProt O35433)
Construct: expressed in transfected cells; host or cells: HEK293
Sequence (O35433 whole entry): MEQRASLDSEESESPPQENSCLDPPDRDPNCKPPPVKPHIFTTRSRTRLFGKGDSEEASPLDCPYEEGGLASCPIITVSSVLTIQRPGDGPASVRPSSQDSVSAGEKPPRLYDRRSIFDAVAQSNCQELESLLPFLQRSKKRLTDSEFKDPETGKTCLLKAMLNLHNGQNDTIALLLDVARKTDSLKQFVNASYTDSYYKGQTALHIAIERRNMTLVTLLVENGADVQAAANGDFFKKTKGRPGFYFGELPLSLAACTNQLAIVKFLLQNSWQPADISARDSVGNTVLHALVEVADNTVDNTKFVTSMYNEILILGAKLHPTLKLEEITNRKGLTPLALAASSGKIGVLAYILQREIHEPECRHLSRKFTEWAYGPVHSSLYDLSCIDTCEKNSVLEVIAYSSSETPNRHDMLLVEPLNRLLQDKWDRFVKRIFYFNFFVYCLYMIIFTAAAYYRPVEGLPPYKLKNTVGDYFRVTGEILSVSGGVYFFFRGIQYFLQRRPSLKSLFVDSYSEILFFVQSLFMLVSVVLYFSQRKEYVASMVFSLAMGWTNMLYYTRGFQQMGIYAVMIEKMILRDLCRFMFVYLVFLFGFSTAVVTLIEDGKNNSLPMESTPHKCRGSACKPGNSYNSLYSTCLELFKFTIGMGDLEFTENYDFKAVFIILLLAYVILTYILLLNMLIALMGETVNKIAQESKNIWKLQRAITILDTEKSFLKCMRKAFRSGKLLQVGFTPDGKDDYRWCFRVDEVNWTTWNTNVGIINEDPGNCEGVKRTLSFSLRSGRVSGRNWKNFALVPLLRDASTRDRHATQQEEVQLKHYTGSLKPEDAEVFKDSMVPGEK
TEST_SUMMARY: Assay for inhibitory activity against VR1 patch clamp activity (capsaicin current, inside-out patch)
Assay type: cell-based
DETAILS: 1 μM compound with 10 μM capsaicin; rat TRPV1-transfected HEK293, inside-out patch; relative to capsaicin current before compound
Procedure: Each of the compounds synthesized in the examples were dissolved in dimethyl sulfoxide (DMSO) at a concentration of 10 mM. […] In this experiment, changes in VR1 activity were recorded in current using an electrophysiological technique. […] A cover glass slip on the bottom of the patch clamp recording chamber was treated for 15 min or longer with a […] poly-L-lysine solution so that the HEK cells would readily adhere thereto. […] The inhibition was expressed as percentages. […]
Each entry below carries its reported inhibition at 1 µM.

Here's what some known entries look like.
INSERT INTO results (structure_smiles_string, observed_value) VALUES
  ('CC(C)(C)c1ccc2nc(-c3ccc(-c4ncccc4Cl)c4ccccc34)[nH]c2c1', '78%'),
  ('CC(C)(C)c1ccc2nc(-c3ccc(-c4ncc(Cl)cc4Cl)c(Cl)c3)[nH]c2c1', '93%'),
  ('CC(C)(C)c1ccc2nc(-c3ccc(-c4ncccc4Cl)cc3)[nH]c2c1', '100%');

Field: next compound
Any idea what inhibition at 1 µM came out for FC(F)(F)c1ccc2nc(-c3ccc(-n4cccc4)cc3)[nH]c2c1 on rat TRPV1 (Rattus norvegicus, UniProt O35433)?
20%

###

MEASURED_ON: human vanilloid-1 (hVR1) (Homo sapiens, UniProt Q8NER1)
Sequence (Q8NER1 whole entry): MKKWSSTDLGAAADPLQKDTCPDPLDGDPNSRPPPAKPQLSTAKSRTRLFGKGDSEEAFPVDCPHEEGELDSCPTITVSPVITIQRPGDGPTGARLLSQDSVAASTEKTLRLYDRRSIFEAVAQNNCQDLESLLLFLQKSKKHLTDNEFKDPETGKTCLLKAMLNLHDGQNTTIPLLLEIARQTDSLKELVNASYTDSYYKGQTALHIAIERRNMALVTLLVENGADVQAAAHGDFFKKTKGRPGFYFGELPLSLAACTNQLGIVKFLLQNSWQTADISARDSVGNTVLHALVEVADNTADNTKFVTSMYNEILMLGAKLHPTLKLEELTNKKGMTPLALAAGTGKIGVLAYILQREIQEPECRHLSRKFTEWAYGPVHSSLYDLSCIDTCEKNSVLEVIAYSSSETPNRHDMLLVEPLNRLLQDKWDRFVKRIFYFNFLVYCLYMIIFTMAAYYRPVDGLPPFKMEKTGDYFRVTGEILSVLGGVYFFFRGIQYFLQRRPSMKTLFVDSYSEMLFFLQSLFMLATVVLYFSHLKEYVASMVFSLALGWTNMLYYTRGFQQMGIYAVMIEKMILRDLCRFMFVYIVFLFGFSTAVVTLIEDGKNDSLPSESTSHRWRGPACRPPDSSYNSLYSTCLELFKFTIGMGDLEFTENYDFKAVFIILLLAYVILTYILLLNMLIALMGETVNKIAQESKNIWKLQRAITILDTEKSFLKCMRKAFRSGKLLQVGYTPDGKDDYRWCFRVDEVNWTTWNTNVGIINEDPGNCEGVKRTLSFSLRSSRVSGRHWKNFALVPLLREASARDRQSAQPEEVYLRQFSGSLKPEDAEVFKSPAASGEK
TEST_SUMMARY: Calcium influx of vanilloid receptor in hVR1-HEK293 cells (capsaicin-induced, Fluo-3/AM)
DETAILS: 1 μM capsaicin-induced intracellular calcium influx, read-out: Inhibitory Activity IC50
Each entry below carries its reported pIC50.
pIC50 here: minus log base 10 of the concentration, concentration in moles per litre.

Here's what some known entries look like.
INSERT INTO measurements (structure_smiles_string, observed_value) VALUES
  ('FC(F)(F)c1ccc2nc(-c3ccc(-c4ncccc4C(F)(F)F)c4ccccc34)[nH]c2c1', 6.44),
  ('CS(=O)(=O)Nc1ccc(-c2ccc(-c3nc4c(C(F)(F)F)cc(C(F)(F)F)cc4[nH]3)cc2)cc1F', 8.40),
  ('Clc1cccnc1-c1ccc(-c2nc3ccc(Br)cc3[nH]2)cc1', 6.54);

Recorded pIC50 of FC(F)(F)c1cnc2nc(-c3ccc(-c4ncccc4C(F)(F)F)cc3)[nH]c2c1 , please.
7.59

Repeat for the following compound: FC(F)(F)c1cccnc1-c1ccc(-c2nc3ccc(Cl)cc3[nH]2)cc1
7.89

Repeat for the following compound: CC(C)(C)c1ccc2nc(-c3ccc(-c4ccccn4)cc3F)[nH]c2c1
6.58

Repeat for the following compound: Clc1cc(-c2nc3ccc(Br)cc3[nH]2)ccc1-c1ccccn1
6.36

Repeat for the following compound: FC(F)(F)c1cc(Br)c2nc(-c3ccc(-c4ncccc4Cl)cn3)[nH]c2c1
7.18

Repeat for the following compound: Clc1ccc2nc(-c3ccc(-c4ncccc4Cl)cc3)[nH]c2c1
5.07

###

MEASURED_ON: human vanilloid-1 (hVR1) (Homo sapiens)
TEST_SUMMARY: Calcium influx of vanilloid receptor in hVR1-HEK293 cells (capsaicin-induced, Fluo-3/AM)
DETAILS: 1 μM capsaicin-induced intracellular calcium influx, read-out: Inhibitory Activity IC50
Each entry below carries its reported pIC50.
pIC50 here: minus log base 10 of the concentration, concentration in moles per litre.

Recorded pIC50 of CC(C)(C)c1ccc2nc(-c3ccc(-c4ncccn4)cc3)[nH]c2c1 [Compound 58] , please.
6.84

Repeat for the following compound: CC(C)(C)c1ccc2nc(-c3ccc(-c4ncccc4Cl)cc3)[nH]c2c1 [Compound 3]
7.21

Repeat for the following compound: FC(F)(F)c1ccc2nc(-c3ccc(-c4ccccn4)cc3)[nH]c2c1 [Compound 48]
6.80

Repeat for the following compound: FC(F)(F)c1cc(Cl)c2nc(-c3ccc(-c4ncccc4C(F)(F)F)cc3)[nH]c2c1 [Compound 31]
8.10

Repeat for the following compound: Brc1cnc2nc(-c3ccc(-c4ccccn4)cc3)[nH]c2c1 [Compound 53]
6.84

Repeat for the following compound: CC(C)(C)c1ccc2nc(-c3ccc(-c4ncccc4C(F)(F)F)cc3)[nH]c2c1 [Compound 30]
7.64

Repeat for the following compound: CC(C)(C)c1ccc2nc(-c3ccc(-n4cccc4)cc3)[nH]c2c1 [Compound 181]
6.66

Repeat for the following compound: Fc1ccc2nc(-c3ccc(-c4ncccc4C(F)(F)F)cc3)[nH]c2c1 [Compound 38]
6.34

Repeat for the following compound: CC(C)(C)c1ccc2nc(-c3ccc(-c4ccccn4)c(Cl)c3)[nH]c2c1 [Compound 126]
6.98

Value source: patent US9199965B2
